These entries and their values trace back to ChEMBL document CHEMBL5325444.

TESTED SYSTEM: Ras-related C3 botulinum toxin substrate 1 (Homo sapiens, UniProt P63000)
ASSAY EXPLANATION: Inhibition of Rac1 in human HeLa cells pretreated for 1 hr followed by EGF stimulation for 2 mins by flow cytometric analysis
Format: cell-based
MEASURED METRIC: EC50 (µM)
Write the value in µM as a bare number.

Specify the recorded EC50 for O=C(c1ccccc1)c1ccc2n1CC[C@H]2C(=O)O , system: Ras-related C3 botulinum toxin substrate 1 (Homo sapiens, UniProt P63000). 212

* * *

ASSAY EXPLANATION: Binding affinity to wild type RHoA (unknown origin)-GEF (unknown origin) assessed as dissociation constant by microscale thermophoresis assay
Design: species or system Homo sapiens
MEASURED METRIC: Kd
Record the result as a number with its unit.

Supply recorded Kd for N[C@H](Cc1c[nH]c2ccccc12)C(=O)N/N=C/c1ccc2nccnc2c1 here. 354 nM

* * *

Tested on: HT-29
ASSAY EXPLANATION: Antiproliferative activity against human HT-29 cells assessed as inhibition of cell growth incubated for 72 hrs by MTT assay
Assay type: functional, cell-based
CONDITION: HT-29, 72 h
For each of the molecules below, state its IC50.
Write the value in µM as a bare number.

Supply recorded IC50 for Cc1cc(C)nc(NC(=N)Nc2ccccc2C(F)(F)F)c1 here. 9

Supply recorded IC50 for Cc1cc(C)cc(NC(=N)Nc2ccccc2C(F)(F)F)c1 here. 83

* * *

ASSAY EXPLANATION: Inhibition of Cdc42 (unknown origin)-GEF (unknown origin) interaction assessed as reduction in Cdc42 GTPase activation preincubated with Cdc42 for 10 to 30 mins followed by GEF addition measured after 30 to 45 mins by absorbance based assay
Parameters: species or system Homo sapiens
MEASURED METRIC: pIC50
The scale used: pIC50 is minus the common logarithm of the concentration in molar units.

Supply recorded pIC50 for O=C(N/N=C/c1ccccc1O)c1cc(O)cc(O)c1 here. 7.01

* * *

TESTED SYSTEM: Cell division control protein 42 homolog (Homo sapiens)
Sequence (P60953 whole entry): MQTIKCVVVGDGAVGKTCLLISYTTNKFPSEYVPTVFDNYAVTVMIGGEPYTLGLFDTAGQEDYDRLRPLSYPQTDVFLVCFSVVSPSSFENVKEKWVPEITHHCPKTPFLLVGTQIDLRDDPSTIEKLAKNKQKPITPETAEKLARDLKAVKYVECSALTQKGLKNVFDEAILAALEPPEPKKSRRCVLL
MEASURED METRIC: Kd (nM)
Write the value in nM as a bare number.

Specify the recorded Kd for OCCNC1CCCc2c1[nH]c1ccc(-c3ccccc3)cc21 (stereo unspecified) , system: Cell division control protein 42 homolog (Homo sapiens). 332

* * *

TESTED SYSTEM: UniProt P60953
ASSAY EXPLANATION: Inhibition of GST-tagged wildtype Cdc42 (unknown origin) incubated for 2 hrs in presence of BODIPY FL GTP by flow cytometry
MEASURED METRIC: pEC50
The scale used: pEC50 is minus the common logarithm of the concentration in molar units.

Supply recorded pEC50 for COc1ccc(C2CC(c3ccccc3)=NN2c2ccc(S(N)(=O)=O)cc2)cc1 (stereo unspecified) here. 5.68
